# TARGET OR SYSTEM: human β2 adrenergic receptor (Homo sapiens)
# Construct: membrane preparation
# Sequence (P07550 whole entry): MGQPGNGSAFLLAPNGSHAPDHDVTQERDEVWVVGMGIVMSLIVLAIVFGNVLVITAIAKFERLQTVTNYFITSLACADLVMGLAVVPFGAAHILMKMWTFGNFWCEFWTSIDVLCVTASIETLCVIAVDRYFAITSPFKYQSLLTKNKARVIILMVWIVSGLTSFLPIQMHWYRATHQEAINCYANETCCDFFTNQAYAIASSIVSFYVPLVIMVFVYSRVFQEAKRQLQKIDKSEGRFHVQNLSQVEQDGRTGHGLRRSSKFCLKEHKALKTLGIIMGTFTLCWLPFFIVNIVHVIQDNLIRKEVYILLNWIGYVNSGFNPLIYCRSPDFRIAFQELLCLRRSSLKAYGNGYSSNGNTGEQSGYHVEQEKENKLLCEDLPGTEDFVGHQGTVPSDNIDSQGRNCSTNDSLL
# PROTOCOL TEXT: Whole-cell cAMP Flashplate assay, lung epithelial cell line BEAS-2B endogenously expressing receptor (Test C)
# ASSAY SETUP: BEAS-2B endogenous cell line, cAMP
# Experimental: For the determination of agonist potencies and efficacies (intrinsic activities) in a cell line expressing endogenous levels of β2 adrenergic receptor, a human lung epithelial cell line (BEAS-2B) was used (ATCC CRL-9609, American Type Culture Collection, Manassas, Va.) (January B, et al., British Journal of Pharmacology, 1998, 123, 4, 701-11). […] On the day of the assay, cells were rinsed with PBS, lifted by scraping with 5 mM EDTA in PBS, and counted. […]
QUANTITY: pEC50
Notebook: values listed as pEC50 are -log10 of the concentration (mol/L).

The reported pEC50 of the compound O=c1ccc2c([C@@H](O)CNCCCCCCNCCc3ccccc3)ccc(O)c2[nH]1 was 8.50
